system_under_test: T1, cynomolgous monkey CD25 (cynomolgous monkey)
T1 construct: also called cmCD25; cm
test_summary: SPR (BIAcore), cynomolgous CD25
readout_type: Kd

Query: Tell us which Kd value is on record for Variant C55 (antibody, V domains shown) VH: QVQLVQSGAEVKKPGSSVKVSCKASGYTFTSYRMHWVRQAPGQGLEWMGYISPKKGRTEYNQKFKDKATITADESTNTAYMELSSLRSEDTAVYYCARGGGVFDYWGQGTLVTVSS VL: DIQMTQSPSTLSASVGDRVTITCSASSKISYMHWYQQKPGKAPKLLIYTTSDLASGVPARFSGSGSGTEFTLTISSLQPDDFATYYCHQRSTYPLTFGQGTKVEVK
Response: 0.049 nM

Query: Provide Kd value for the following binder: Variant C48 (antibody, V domains shown) VH: QVQLVQSGAEVKKPGSSVKVSCKASGYTFTSYRMHWVRQAPGQGLEWMGYIRPKSGYTEYNQKFKDKATITADESTNTAYMELSSLRSEDTAVYYCARGGGVFDYWGQGTLVTVSS VL: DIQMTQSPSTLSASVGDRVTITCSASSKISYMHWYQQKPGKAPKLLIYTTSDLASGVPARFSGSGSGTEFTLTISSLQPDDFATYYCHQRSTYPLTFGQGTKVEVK
Response: 0.053 nM

Query: Give the reported value of Kd for this record: Variant C52 (antibody, V domains shown) VH: QVQLVQSGAEVKKPGSSVKVSCKASGYTFTSYRMHWVRQAPGQGLEWMGYIKPNSGYTEYNQKFKDKATITADESTNTAYMELSSLRSEDTAVYYCARGGGVFDYWGQGTLVTVSS VL: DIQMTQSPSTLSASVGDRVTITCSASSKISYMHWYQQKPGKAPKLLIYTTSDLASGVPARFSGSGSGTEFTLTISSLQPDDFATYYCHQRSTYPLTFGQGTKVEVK
Response: 0.075 nM

Query: Provide measured Kd value, entry: Variant C49 (antibody, V domains shown) VH: QVQLVQSGAEVKKPGSSVKVSCKASGYTFTSYRMHWVRQAPGQGLEWMGYISPNKGYTEYNQKFKDKATITADESTNTAYMELSSLRSEDTAVYYCARGGGVFDYWGQGTLVTVSS VL: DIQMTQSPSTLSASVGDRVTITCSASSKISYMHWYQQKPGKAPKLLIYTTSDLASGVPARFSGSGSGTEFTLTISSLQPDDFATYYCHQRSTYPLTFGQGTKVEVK
Response: 0.0079 nM

Query: Note Kd for the binder shown: Variant C60 (antibody, V domains shown) VH: QVQLVQSGAEVKKPGSSVKVSCKASGYTFTSYRMHWVRQAPGQGLEWMGYISPNKGRTEYNQKFKDKATITADESTNTAYMELSSLRSEDTAVYYCARGGGVFDYWGQGTLVTVSS VL: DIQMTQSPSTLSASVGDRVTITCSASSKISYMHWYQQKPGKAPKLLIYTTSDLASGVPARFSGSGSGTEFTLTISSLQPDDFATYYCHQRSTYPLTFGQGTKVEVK
Response: < 0.0023 nM
